A collection of compounds and their measured pIC50
# target-or-system: E. coli PhoR (PhoR^E) (Escherichia coli, UniProt P08400)
# Construct: The catalytic portion (DHp and CA domain) of E. coli PhoR (PhoR^E); made in house; host or cells: E. coli RIL
# Sequence (P08400 210-425): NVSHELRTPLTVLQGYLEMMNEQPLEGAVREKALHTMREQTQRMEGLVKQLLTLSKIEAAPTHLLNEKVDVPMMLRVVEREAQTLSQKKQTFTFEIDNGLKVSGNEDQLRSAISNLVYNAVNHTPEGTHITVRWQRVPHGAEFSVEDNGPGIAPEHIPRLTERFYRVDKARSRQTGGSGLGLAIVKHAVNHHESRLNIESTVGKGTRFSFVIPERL
# assay-remarks: In vitro autophosphorylation kinase assay with γ-32P-ATP, PhoR^E
# Format: biochemical
# details: IC50 PhoR^E, autophosphorylation, one time point (30 sec), 10% DMSO
pIC50: −log10 of the molar value.

Here's what some known entries look like.
1. CCc1ccc2[nH]c3ccccc3c2c1 [F2.9] = > 2.70
2. CC(NCc1cccc2ccccc12)c1ccc(F)cc1 (centres unmarked) [S8] = < 2.30
3. CC(=O)Nc1cccc(OCOc2ccc([N+](=O)[O-])cc2)c1 [S1.16] = < 2.70

**Q:** GET /values?readout=pIC50&item= CCC(Nc1cccc(NC(C)=O)c1)c1ccc(F)cc1 (centres unmarked) [S5]
**A:** ~3.00

**Q:** GET /values?readout=pIC50&item= Nc1nc(-c2ccc(Cl)cc2)cs1 [F1.2]
**A:** < 2.70

**Q:** GET /values?readout=pIC50&item= O=C(CCN1c2ccccc2Sc2ccccc21)OCc1cc(=O)n2ccsc2n1 [S1]
**A:** < 2.30

**Q:** GET /values?readout=pIC50&item= CC(=O)Nc1cccc(OCc2ccc([N+](=O)[O-])cc2)c1 [S1.8]
**A:** < 2.70

**Q:** GET /values?readout=pIC50&item= CCN(Cc1ccc(C(=O)OC)cc1)c1cccc(NC(C)=O)c1 [S1.1]
**A:** < 2.70

**Q:** GET /values?readout=pIC50&item= CC(=O)Nc1ccc(C(O)c2ccc(NC(C)=O)cc2)cc1 [S1.6]
**A:** < 2.70

**Q:** GET /values?readout=pIC50&item= Nc1nnc(-c2ccc(Br)cc2)o1 [F1.5]
**A:** < 2.70

**Q:** GET /values?readout=pIC50&item= CC(NCc1cccc2ccccc12)c1cccc(F)c1 (centres unmarked) [S9]
**A:** < 2.30

* * *

# target-or-system: S. aureus PhoR (PhoR^S) (Staphylococcus aureus, UniProt Q2FXN7)
# Sequence (Q2FXN7 entry or part of it): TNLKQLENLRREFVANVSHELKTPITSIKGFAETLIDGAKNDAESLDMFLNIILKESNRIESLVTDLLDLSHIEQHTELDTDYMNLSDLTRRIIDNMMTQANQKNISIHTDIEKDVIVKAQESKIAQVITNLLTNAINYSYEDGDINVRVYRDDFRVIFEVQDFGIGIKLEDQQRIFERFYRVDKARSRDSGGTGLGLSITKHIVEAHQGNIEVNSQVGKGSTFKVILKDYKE
# assay-remarks: In vitro autophosphorylation kinase assay with γ-32P-ATP, PhoR^S
# Type: biochemical
# details: IC50 PhoR^S, autophosphorylation, one time point (30 sec), 10% DMSO
A collection of molecules and their measured IC50

Here's what some known entries look like.
1. CC(=O)NC(Cc1ccccc1)C(=O)Nc1cccc(C)c1 (centres unmarked) = > 2000 µM
2. O=C(NCc1cccc(Cl)c1)Nc1ccccc1 = > 2000 µM
3. CC(=O)Nc1cccc(OCOc2ccc([N+](=O)[O-])cc2)c1 = > 2000 µM

**Q:** Lab request: please report IC50 under test system S. aureus PhoR (PhoR^S) (Staphylococcus aureus, UniProt Q2FXN7) for `CC[C@H](c1ccc(O)cc1)[C@@H](CC)c1ccc(F)cc1`
**A:** 212 µM

**Q:** Lab request: please report IC50 under test system S. aureus PhoR (PhoR^S) (Staphylococcus aureus, UniProt Q2FXN7) for CC(NC(=O)C1CC(=O)N(c2ccccc2)C1)c1cccc(NC(=O)c2ccccc2)c1 (centres unmarked)
**A:** > 5000 µM
